Sourced from patent US20220062233A1

We begin with a simple list: items and their reported clearance.
- METHOD: In vivo pharmacokinetics and brain penetration, single dose, mouse
- CONDITION_DESCRIPTION: C57BL6, blood, intravenous, 0.5 mg/kg; Mouse, single dose
Supply the numeric figure in mL/min/kg, leaving out any unit text.

Exam item: Given [2H]C([2H])(O)c1ccc(CN[C@@H]2CCCc3c2[nH]c2ccc(Br)cc32)cc1 [Compound 42] , state its recorded clearance.
Marked response: 80

Exam item: Lookup OCCOCc1ccc(CN[C@@H]2CCCc3c2[nH]c2ccc(Br)cc32)cc1 (single isomer, unassigned) [Compound 28]
Marked response: 16.7

Exam item: Lookup CC(C)(O)c1ccc(CN[C@@H]2CCCc3c2[nH]c2ccc(Br)cc32)cc1 [Compound 31]
Marked response: 50

Exam item: Lookup OCc1ccc(CN[C@@H]2CCCc3c2[nH]c2ccc(Br)cc32)cc1 [Compound 2]
Marked response: 183

Exam item: Lookup CS(=N)(=O)c1ccc(CN[C@@H]2CCCc3c2[nH]c2ccc(Br)cc32)cc1 (some centres unmarked) [Compound 49]
Marked response: 55

###

We begin with a simple list: items and their reported IC50.
- ASSAYED_TARGET: interaction between Supt4h and NGN (subunit of Supt5h) (Homo sapiens, UniProt O00267+P63272)
- METHOD: Split Gaussia luciferase complementation assay (M2-8 Luciferase)
- CONDITION_DESCRIPTION: M2-8 cells

Reference set (3 entries):
COMPOUND | IC50
CC(=O)N1CCN(Cc2ccc(CN[C@@H]3CCCc4c3[nH]c3ccc(Br)cc43)cc2)CC1 | 101 to 300 nM
OCc1ccc(CNC2CCCc3c2[nH]c2ccc(Br)cc32)cc1 (stereo not shown) | ≤ 100 nM
COC(=O)c1cccc(CN[C@@H]2CCCc3c2[nH]c2ccc(Br)cc32)c1 (single isomer, unassigned) | 101 to 300 nM

Please examine the following record next.
Exam item: Given Cn1c2c(c3cc(Br)ccc31)CCCC2NCc1ccccc1 (stereo not shown) , state its recorded IC50.
Marked response: > 1000 nM

###

- METHOD: In vivo pharmacokinetics and brain penetration, single dose, mouse
- CONDITION_DESCRIPTION: C57BL6, brain / blood; Mouse, single dose, averaged over collection time points; read-out: BB_Ratios (brain-to-blood concentration ratio)
TEST_READOUT: Kp

COMPOUND | Kp
CC(C)(O)c1ccc(CN[C@@H]2CCCc3c2[nH]c2ccc(Br)cc32)cc1 | ≥ 1
CS(=N)(=O)c1ccc(CN[C@@H]2CCCc3c2[nH]c2ccc(Br)cc32)cc1 (stereo partly drawn) | ≥ 1

Exam item: Given OCCOCc1ccc(CN[C@@H]2CCCc3c2[nH]c2ccc(Br)cc32)cc1 (single isomer, unassigned) , state its recorded Kp.
Marked response: ≥ 1

###

- METHOD: In vivo pharmacokinetics and brain penetration, single dose, rat
- CONDITION_DESCRIPTION: Sprague-Dawley, in vivo, single dose, read-out: Elimination Half-life (converted)
TEST_READOUT: half-life (h)
Supply the numeric figure in h, leaving out any unit text.

Exam item: Given OCc1ccc(CNC2CCCc3c2[nH]c2ccc(Br)cc32)cc1 (stereo not shown) [Compound 1] , state its recorded half-life.
Marked response: 1.9

###

- METHOD: In vivo pharmacokinetics and brain penetration, single dose, mouse
- CONDITION_DESCRIPTION: C57BL6, blood, oral, 5 mg/kg; Mouse, single dose; read-out: Cmax (maximum concentration in blood or plasma)
TEST_READOUT: Cmax

Exam item: Given [2H]C([2H])(O)c1ccc(CN[C@@H]2CCCc3c2[nH]c2ccc(Br)cc32)cc1 [Compound 42] , state its recorded Cmax.
Marked response: 100 to 300 nM

Exam item: Lookup CC(C)(O)c1ccc(CN[C@@H]2CCCc3c2[nH]c2ccc(Br)cc32)cc1 [Compound 31]
Marked response: 100 to 300 nM

Exam item: Lookup CS(=N)(=O)c1ccc(CN[C@@H]2CCCc3c2[nH]c2ccc(Br)cc32)cc1 (some centres unmarked) [Compound 49]
Marked response: > 300 nM

Exam item: Lookup OCCOCc1ccc(CN[C@@H]2CCCc3c2[nH]c2ccc(Br)cc32)cc1 (single isomer, unassigned) [Compound 28]
Marked response: > 300 nM

Exam item: Lookup OCc1ccc(CN[C@@H]2CCCc3c2[nH]c2ccc(Br)cc32)cc1 [Compound 2]
Marked response: < 100 nM

###

- METHOD: In vivo pharmacokinetics and brain penetration, single dose, rat
- CONDITION_DESCRIPTION: Sprague-Dawley, in vivo, single dose, read-out: Cmax (maximum concentration in blood or plasma)
TEST_READOUT: Cmax

Exam item: Given OCc1ccc(CNC2CCCc3c2[nH]c2ccc(Br)cc32)cc1 (stereo not shown) , state its recorded Cmax.
Marked response: 100 to 300 nM

###

- Test system: wild-type HTT
- METHOD: Wild-type HTT assay in lymphoblastoid cells (LBC), Western blot
- Format: cell-based, human
- CONDITION_DESCRIPTION: 3 days compound treatment, read-out: LBC IC20 (nM) wtHTT
We begin with a simple list: items and their reported IC20.

MOLECULE | ASSAYED_TARGET | IC20
[2H]C([2H])(O)c1ccc(CN[C@@H]2CCCc3c2[nH]c2ccc(Br)cc32)cc1 [Compound 42] | wild-type HTT | > 1000 nM
CC(C)(O)c1ccc(CN[C@@H]2CCCc3c2[nH]c2ccc(Br)nc32)cc1 [Compound 63] | wild-type HTT | > 500 nM
COc1ccc(CN[C@@H]2CCCc3c2[nH]c2ccc(Br)cc32)cc1 [Compound 25] | wild-type HTT | > 1000 nM
OC1(c2ccc(CN[C@@H]3CCCc4c3[nH]c3ccc(Br)cc43)cc2)CC1 [Compound 50] | wild-type HTT | > 500 nM

Exam item: Given Brc1ccc2[nH]c3c(c2c1)CCC[C@H]3NCc1cccc(I)c1 [Compound 41] , state its recorded IC20.
Marked response: > 1000 nM

Exam item: Lookup COCC(N[C@@H]1CCCc2c1[nH]c1ccc(Br)cc21)c1ccc(C(C)(C)O)cc1 (single isomer, unassigned) [Compound 52]
Marked response: > 500 nM

Exam item: Lookup OCc1ccc(CN[C@H]2CCCc3c2[nH]c2ccc(Br)cc32)cc1 [Compound 3]
Marked response: > 1000 nM

###

- ASSAYED_TARGET: interaction between Supt4h and NGN (subunit of Supt5h) (Homo sapiens, UniProt O00267+P63272)
- METHOD: Split Gaussia luciferase complementation assay (M2-8 Luciferase)
- CONDITION_DESCRIPTION: M2-8 cells
- From the text: A. Split Gaussia Luciferase Complementation Assay […] i: pNBR-X1-Supt4-Gluc1 and pNEBR-X1-NGN-Gluc2 […] Plasmids harboring the Gluc1 and Gluc2 are co-transfected in a 1:1 ratio into 293-R1 cells plated on tissue culture treated 24-well plates using Lipofectamine 2000 according to the manufacturer's instructions. […] Signal intensities (integrated 100 ms) were read on Tecan Infinite M200 or M1000. […]
pIC50: −log10 of the molar value.
We begin with a simple list: items and their reported pIC50.

COMPOUND | pIC50
COc1ccc(CN[C@@H]2CCCc3c2[nH]c2ccc(Br)cc32)cc1 | 6.52 to 7.00
C=C(C)c1ccc(CN[C@@H]2CCCc3c2[nH]c2ccc(Br)cc32)s1 | ≥ 7.00
OCc1ccc(CN[C@H]2CCCc3c2[nH]c2ccc(Br)cc32)cc1 | < 6.00
COc1cccc(CN[C@@H]2CCCc3c2[nH]c2ccc(Br)cc32)c1 | ≥ 7.00
Brc1ccc2[nH]c3c(c2c1)CCC[C@H]3NCc1ccc(CN2CCOCC2)cc1 | ≥ 7.00
OB(O)c1ccc(CN[C@@H]2CCCc3c2[nH]c2ccc(Br)cc32)cc1 | ≥ 7.00

Exam item: Given OCCOCc1ccc(CN[C@@H]2CCCc3c2[nH]c2ccc(Br)cc32)cc1 (single isomer, unassigned) , state its recorded pIC50.
Marked response: ≥ 7.00

Exam item: Lookup CCc1ccc2[nH]c3c(c2c1)CCC[C@H]3NCc1ccccc1
Marked response: 6.00 to 6.52

Exam item: Lookup Brc1ccc2[nH]c3c(c2c1)CCC[C@H]3NCc1ccc(I)cc1
Marked response: 6.52 to 7.00

Exam item: Lookup Brc1ccc2[nH]c3c(c2c1)CCC[C@H]3NCc1ccccn1
Marked response: 6.52 to 7.00

Exam item: Lookup OCCc1ccc2[nH]c3c(c2c1)CCC[C@H]3NCc1ccccc1
Marked response: < 6.00

Exam item: Lookup Oc1ccc(CN[C@@H]2CCCc3c2[nH]c2ccc(Br)cc32)cc1
Marked response: ≥ 7.00

Exam item: Lookup CC1(C)Cc2c([nH]c3ccc(Br)cc23)[C@H](NCc2ccccc2)C1
Marked response: < 6.00

Exam item: Lookup OCc1ccc(CN[C@@H]2CCCc3c2[nH]c2ccc(Br)cc32)s1
Marked response: ≥ 7.00

Exam item: Lookup CS(=N)(=O)c1ccc(CN[C@@H]2CCCc3c2[nH]c2ccc(Br)cc32)cc1 (stereo partly drawn)
Marked response: ≥ 7.00

Exam item: Lookup CC(C)(O)c1ccc(CN[C@@H]2CCCc3c2[nH]c2ccc(Br)cc32)cc1
Marked response: ≥ 7.00

Exam item: Lookup OCC#Cc1ccc2[nH]c3c(c2c1)CCC[C@H]3NCc1ccccc1
Marked response: 6.00 to 6.52

Exam item: Lookup CC(C)(O)c1cccc(CN[C@@H]2CCCc3c2[nH]c2ccc(Br)cc32)c1 (single isomer, unassigned)
Marked response: 6.52 to 7.00
